tested-system: GABA-A receptor
measurement-notes: 35S-TBPS binding assay (GABAA receptor binding ability test)
study-conditions: rat cerebral cortex cell membrane, 5 μM GABA, 2 nM 35S-TBPS; read-out: 35S-TBPS bindng test: IC50 on inhibiting the TBPS binding activity
Description: 1.2 Experimental Procedures 1.2.1 Extraction of Cerebral Cortex Cell Membrane: 1. The cerebral cortex of male Sprague-Dawley rat was isolated. 2. […] 9. The protein concentration was measured by the bicinchoninic acid (BCA) method. […] 11. 40 μL of scintillation solution was added to each well, and the CPM value was read with TopCount. […] In the experiment, the CPM (counts per minute) value was read with TopCount. […]
pIC50: −log10 of the molar value.
quantity-measured: pIC50

| smiles-code | tested-system | quantity-measured | reported-result |
| --- | --- | --- | --- |
| C[C@@]1(O)CC[C@H]2[C@H](CC[C@@H]3[C@@H]2CC[C@@]2(C)[C@H]3[C@@H]3C[C@@H]3[C@@H]2C(=O)Cn2ccnc2)C1 | GABA-A receptor | pIC50 | 7.42 |
| C[C@@H]1C[C@H](C(=O)CN2C(=O)CSC2=O)[C@@]2(C)CC[C@H]3[C@@H](CC[C@@H]4C[C@](C)(O)CC[C@@H]43)[C@H]12 | GABA-A receptor | pIC50 | 7.58 |
| C[C@@H]1C[C@H](C(=O)Cn2cc(C(=O)N3CCC3)cn2)[C@@]2(C)CC[C@H]3[C@@H](CC[C@@H]4C[C@](C)(O)CC[C@@H]43)[C@H]12 | GABA-A receptor | pIC50 | 7.75 |
| CC[C@@H]1C[C@H](C(=O)Cn2ccnn2)[C@@]2(C)CC[C@H]3[C@@H](CC[C@@H]4C[C@](C)(O)CC[C@@H]43)[C@H]12 | GABA-A receptor | pIC50 | 7.48 |
| C[C@@]1(O)CC[C@H]2[C@H](CC[C@@H]3[C@@H]2CC[C@@]2(C)[C@H]3[C@H](C3CC3)C[C@@H]2C(=O)Cn2ccc(C(F)(F)F)n2)C1 | GABA-A receptor | pIC50 | 7.73 |
| C[C@@]1(O)CC[C@H]2[C@H](CC[C@@H]3[C@@H]2CC[C@@]2(C)[C@H]3[C@@H]3C[C@@H]3[C@@H]2C(=O)Cn2cc(F)cn2)C1 | GABA-A receptor | pIC50 | 7.54 |
| CC[C@@H]1C[C@H](C(=O)Cn2nc(C#N)cc2C#N)[C@@]2(C)CC[C@H]3[C@@H](CC[C@@H]4C[C@](C)(O)CC[C@@H]43)[C@H]12 | GABA-A receptor | pIC50 | 7.79 |
| C[C@@]1(O)CC[C@H]2[C@H](CC[C@@H]3[C@@H]2CC[C@@]2(C)[C@H]3[C@@H]3C[C@@H]3[C@@H]2C(=O)COc2cnc(C(F)(F)F)nc2)C1 | GABA-A receptor | pIC50 | 8.38 |
| Cc1nnn(CC(=O)[C@H]2C[C@@H](C)[C@H]3[C@@H]4CC[C@@H]5C[C@](C)(O)CC[C@@H]5[C@H]4CC[C@@]32C)n1 | GABA-A receptor | pIC50 | 8.27 |
| C[C@@]1(O)CC[C@H]2[C@H](CC[C@@H]3[C@@H]2CC[C@@]2(C)[C@H]3[C@@H]3C[C@@H]3[C@@H]2C(=O)Cn2nc(C#N)cc2C#N)C1 | GABA-A receptor | pIC50 | 8.21 |
| Cc1nnnn1CC(=O)[C@H]1[C@H]2C[C@H]2[C@H]2[C@@H]3CC[C@@H]4C[C@](C)(O)CC[C@@H]4[C@H]3CC[C@@]21C | GABA-A receptor | pIC50 | 7.94 |
| C[C@@]1(O)CC[C@H]2[C@H](CC[C@@H]3[C@@H]2CC[C@@]2(C)[C@H]3[C@H](C3CC3)C[C@@H]2C(=O)COc2cnc(C(F)(F)F)nc2)C1 | GABA-A receptor | pIC50 | 7.58 |
| C[C@@]1(O)CC[C@H]2[C@H](CC[C@@H]3[C@@H]2CC[C@@]2(C)[C@H]3[C@@H]3C[C@@H]3[C@@H]2C(=O)Cn2nc3ccc(F)cc3n2)C1 | GABA-A receptor | pIC50 | 7.97 |
| C[C@@H]1C[C@H](C(=O)Cn2ncnn2)[C@@]2(C)CC[C@H]3[C@@H](CC[C@@H]4C[C@](C)(O)CC[C@@H]43)[C@H]12 | GABA-A receptor | pIC50 | 8.21 |
| C[C@@H]1C[C@H](C(=O)Cn2cc(C#N)c(C3CC3)n2)[C@@]2(C)CC[C@H]3[C@@H](CC[C@@H]4C[C@](C)(O)CC[C@@H]43)[C@H]12 | GABA-A receptor | pIC50 | 8.12 |
| C[C@@]1(O)CC[C@H]2[C@H](CC[C@@H]3[C@@H]2CC[C@@]2(C)[C@H]3[C@@H]3C[C@@H]3[C@@H]2C(=O)Cn2cc(C#N)c(C3CC3)n2)C1 | GABA-A receptor | pIC50 | 7.74 |
| CC[C@@H]1C[C@H](C(=O)Cn2ccc(C#N)n2)[C@@]2(C)CC[C@H]3[C@@H](CC[C@@H]4C[C@](C)(O)CC[C@@H]43)[C@H]12 | GABA-A receptor | pIC50 | 7.79 |
| C[C@@]1(O)CC[C@H]2[C@H](CC[C@@H]3[C@@H]2CC[C@@]2(C)[C@H]3[C@@H]3C[C@@H]3[C@@H]2C(=O)Cn2cc3ccncc3n2)C1 | GABA-A receptor | pIC50 | 7.64 |
| C[C@@]1(O)CC[C@H]2[C@H](CC[C@@H]3[C@@H]2CC[C@@]2(C)[C@H]3[C@@H]3C[C@@H]3[C@@H]2C(=O)Cn2ncc(C#N)c2C2CC2)C1 | GABA-A receptor | pIC50 | 7.55 |
| CC[C@@H]1C[C@H](C(=O)Cn2nccn2)[C@@]2(C)CC[C@H]3[C@@H](CC[C@@H]4C[C@](C)(O)CC[C@@H]43)[C@H]12 | GABA-A receptor | pIC50 | 7.62 |
